assay.name: chemical genetic growth profiling, strain panel (AID 1159580);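 note: tested at 20 µM; growth read once vehicle control cultures reached saturation at 30 °C; 1 = growth at the plate median or of vehicle wells; lower values mean less growth of the strain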
run.conditions: S. cerevisiae deletion strains, growth OD, locus YPR111W, strain DBF20, hits give low values
Hit rate of the full screen: of about 5,500 compounds, about 2,000 (36%) were called active. Not shown: some 18% with an inconclusive outcome. The list shows a part of the results.
value.kind: normalized growth
Response field accepts a number only; no unit should be typed.

Record summary for COc1ccc(NC(=O)O/N=C(/N)c2ccc(Oc3c(Cl)cncc3Cl)cc2)cc1 : reported normalized growth = 1

Record summary for Cc1ccccc1C(=O)N1CCc2c([nH]c3ccccc23)C1C(F)(F)F (configuration not stated) : reported normalized growth = 0.966

Record summary for O=C(Nc1cc(Cl)cc(Cl)c1)Nc1cc(-c2ccco2)[nH]n1 : reported normalized growth = 0.944

Record summary for CC1=CC(=O)C(CCOCCC2=CC(=O)C(C)=CC2=O)=CC1=O : reported normalized growth = 0.98

Record summary for Cc1oc2c(F)c(F)c(F)c(F)c2c1C(=O)ONC(N)c1ccc(OS(=O)(=O)N(C)C)cc1 (configuration not stated) : reported normalized growth = 0.98

Record summary for Cc1c(C(=O)N2CCCCC2)cc(-c2ccccc2)n1-c1ccccc1 : reported normalized growth = 0.94

Record summary for Cc1c(Cl)cccc1NC(=S)N1CCCN(c2nc3ccc(Cl)cc3s2)CC1 : reported normalized growth = 0.992

====

What normalized growth was measured for each of the following?
assay.name: chemical genetic growth profiling, strain panel (AID 1159580)
run.conditions: S. cerevisiae deletion strains, growth OD, locus YGR040W, strain KSS1, hits give low values
Screen size: about 5,500 compounds; about 2,000 (36%) were called active. Roughly 18% stayed inconclusive and do not appear here. Some of the results follow.
Response field accepts a number only; no unit should be typed.

Record summary for Cc1c(C(=O)N2CCCCC2)cc(-c2ccccc2)n1-c1ccccc1 : reported normalized growth = 0.897

Record summary for NC(N)=Nc1nc(-c2cc(Cl)sc2Cl)cs1 : reported normalized growth = 0.942

Record summary for N#Cc1c(Cl)c(Cl)c(Cl)c(Cl)c1C#N : reported normalized growth = 0.352

Record summary for Cc1cc(SCc2[nH]nc3oc(=O)cc(C)c23)c(Cl)cc1Cl : reported normalized growth = 1.01

Record summary for Cc1ccccc1C(=O)N1CCc2c([nH]c3ccccc23)C1C(F)(F)F (stereo not given) : reported normalized growth = 0.927

====

assay.name: chemical genetic growth profiling, strain panel (AID 1159580)
run.conditions: S. cerevisiae deletion strains, growth OD, locus YOL078W, strain AVO1, hits give low values
In all, about 5,500 compounds went through this assay and about 2,000 (36%) were called active. About 18% were inconclusive and are not listed. The list shows a part of the results.
What normalized growth was measured for each of the following?
Response field accepts a number only; no unit should be typed.

Record summary for COc1ccc(NC(=O)O/N=C(/N)c2ccc(Oc3c(Cl)cncc3Cl)cc2)cc1 : reported normalized growth = 0.973

Record summary for Cc1oc2c(F)c(F)c(F)c(F)c2c1C(=O)ONC(N)c1ccc(OS(=O)(=O)N(C)C)cc1 (stereo not drawn) : reported normalized growth = 0.963

Record summary for N#Cc1c(Cl)c(Cl)c(Cl)c(Cl)c1C#N : reported normalized growth = 0.652

Record summary for Cc1cc(SCc2[nH]nc3oc(=O)cc(C)c23)c(Cl)cc1Cl : reported normalized growth = 0.998

Record summary for O=C(C=C(O)c1ccc(Br)cc1)C(=O)Nc1ccccc1 : reported normalized growth = 0.76

Record summary for C=CC(=O)N1CCc2cc([N+](=O)[O-])ccc21 : reported normalized growth = 0.71

Record summary for NCCCN=c1ccc2c3c1c(O)c1c(O)ccc(=O)c1c3[nH]n2CCNCCO : reported normalized growth = 0.971

Record summary for O=C(Nc1c(Br)c(C2CC2)nn1-c1ccccc1)C(Cl)(Cl)Cl : reported normalized growth = 0.912

Record summary for Cn1c([N+](=O)[O-])cnc1/C=C(\C#N)C(=O)Nc1ccc(F)cc1 : reported normalized growth = 0.47

Record summary for N#C/C(=N/Nc1ccccc1Cl)S(=O)(=O)c1ccc(Cl)cc1 : reported normalized growth = 0.968

Record summary for O=C(CCN1CCCCC1)c1ccc(-c2ccccc2)cc1 : reported normalized growth = 0.98

Record summary for Cc1c(Cl)cccc1NC(=S)N1CCCN(c2ccc(C(F)(F)F)cc2[N+](=O)[O-])CC1 : reported normalized growth = 0.989

Record summary for C/C(=N/NC(N)=S)c1ccccn1 : reported normalized growth = 0.964

====

assay.name: chemical genetic growth profiling, strain panel (AID 1159580)
run.conditions: S. cerevisiae deletion strains, growth OD, locus YDL192W, strain arf1, hits give low values
About 2,000 (36%) of roughly 5,500 compounds were called active. Another 18% or so got no clear call; they are omitted. This is one part of the list.
What normalized growth was measured for each of the following?
Response field accepts a number only; no unit should be typed.

Record summary for N#Cc1c(Cl)c(Cl)c(Cl)c(C#N)c1Cl : reported normalized growth = 0.984

Record summary for CC[C@@H](CO)NCCN[C@@H](CC)CO : reported normalized growth = 1

Record summary for CC(C)=CCc1c(O)cc(C)oc1=O : reported normalized growth = 1.01

Record summary for CC(=O)OCC(CCn1cnc2cnc(N)nc21)COC(C)=O : reported normalized growth = 0.971

Record summary for CC(C)=CCc1c(O)cc2oc(C)cc(=O)c2c1O : reported normalized growth = 0.93

Record summary for O=[N+]([O-])O[C@H]1CO[C@H]2[C@@H]1OC[C@H]2O[N+](=O)[O-] : reported normalized growth = 1.02

====

assay.name: chemical genetic growth profiling, strain panel (AID 1159580);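 note: tested at 20 µM; growth read once vehicle control cultures reached saturation at 30 °C; 1 = growth at the plate median or of vehicle wells; lower values mean less growth of the strain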
run.conditions: S. cerevisiae deletion strains, growth OD, locus YNL298W, strain CLA4, hits give low values
Among all 5,500 compounds or so, about 2,000 (36%) were called active. Not shown: some 18% with an inconclusive outcome. The list shows a part of the results.
I'd appreciate it if you marked entries MET when normalized growth is lower than 1 and NOT MET when it is not.

Quick check: does COc1cc2c(cc1OC)C(=O)C(CC1CCN(Cc3ccccc3)CC1)C2 (stereo unspecified) have normalized growth under 1?
MET

Quick check: does COc1ccc(-c2coc3c(OC)c(OC)cc(O)c3c2=O)cc1 have normalized growth under 1?
MET

Quick check: does COC1C(O)C(O)C(O)[C@@H](O)C1O (stereo partly specified) have normalized growth under 1?
NOT MET

Quick check: does COc1ccc(-c2coc3c(OC)c(O)ccc3c2=O)cc1 have normalized growth under 1?
MET

====

What normalized growth was measured for each of the following?
assay.name: chemical genetic growth profiling, strain panel (AID 1159580);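 note: tested at 20 µM; growth read once vehicle control cultures reached saturation at 30 °C; 1 = growth at the plate median or of vehicle wells; lower values mean less growth of the strain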
run.conditions: S. cerevisiae deletion strains, growth OD, locus YNL183C, strain NPR1, hits give low values
Out of some 5,500 compounds screened, about 2,000 (36%) were called active. Roughly 18% stayed inconclusive and do not appear here. The list shows a part of the results.
Response field accepts a number only; no unit should be typed.

Record summary for O=c1ccc2ccccc2o1 : reported normalized growth = 0.949

Record summary for Cc1c(C(=O)N2CCCCC2)cc(-c2ccccc2)n1-c1ccccc1 : reported normalized growth = 0.942

Record summary for Cc1cc(OC(=O)N2CCCCC2)c(C(C)C)cc1[N+](C)(C)C : reported normalized growth = 0.949

Record summary for COc1ccc([C@@H]2CC(=O)c3c(O)cc(O)cc3O2)cc1O : reported normalized growth = 0.944

Record summary for NCC1CCCCC1CC(=O)O (centres undefined) : reported normalized growth = 0.912

Record summary for CC(=O)O[C@H]1C(=O)[C@@]2(C)C([C@H](OC(=O)c3ccccc3)[C@]3(O)C[C@H](OC(=O)[C@H](O)[C@@H](NC(=O)c4ccccc4)c4ccccc4)C(C)=C1C3(C)C)[C@]1(OC(C)=O)CO[C@@H]1C[C@@H]2O (some centres undefined) : reported normalized growth = 0.952

Record summary for COc1ccc(-c2coc3c(O)c(OC)ccc3c2=O)cc1 : reported normalized growth = 0.952

Record summary for CN1CCCC(n2nc(Cc3ccc(Cl)cc3)c3ccccc3c2=O)CC1 (centres undefined) : reported normalized growth = 0.975

Record summary for CC(=O)O[C@H]1C(=O)[C@@]2(C)C([C@H](OC(=O)c3ccccc3)[C@]3(O)C[C@H](O)C(C)=C1C3(C)C)[C@]1(OC(C)=O)CO[C@@H]1C[C@@H]2O (some centres undefined) : reported normalized growth = 0.953

====

assay.name: chemical genetic growth profiling, strain panel (AID 1159580);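 note: tested at 20 µM; growth read once vehicle control cultures reached saturation at 30 °C; 1 = growth at the plate median or of vehicle wells; lower values mean less growth of the strain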
run.conditions: S. cerevisiae deletion strains, growth OD, locus YLR342W, strain FKS1
The campaign covered roughly 5,500 compounds. About 2,000 (36%) were called active. About 18% were inconclusive and are not listed. Rule as the data show it: active = normalized growth mostly below about 0.91 (no sharp cut-off); inconclusive = no clear call, values can overlap the other calls; inactive = mostly above about 0.92. The list shows a part of the results.
Permitted responses: active, inactive

Record lookup: outcome of this test for COC(=O)C1=COC(OC2OC(CO)C(O)C(O)C2O)C2C(C)CC(=O)C12O (centres undefined) ?
inactive

Record lookup: outcome of this test for C=CCc1ccc2c(c1)OCO2 ?
inactive

Record lookup: outcome of this test for COc1ccc(C(=O)c2ccccc2)c(O)c1 ?
active

Record lookup: outcome of this test for NC/C=C/C(=O)O ?
inactive

Record lookup: outcome of this test for CC(C)(C)CC(C)(C)c1ccc(OCCOCC[N+](C)(C)Cc2ccccc2)cc1 ?
active

Record lookup: outcome of this test for COc1ccc2c(c1)[C@@]1(C)CCC(=O)C[C@H]1CC2 ?
inactive

Record lookup: outcome of this test for COc1cccc([C@]2(O)CCCC[C@H]2CN(C)C)c1 ?
inactive

Record lookup: outcome of this test for COc1cc2c(cc1OC)C(=O)C(CC1CCN(Cc3ccccc3)CC1)C2 (centres undefined) ?
inactive

Record lookup: outcome of this test for NC(N)=Nc1nc(CSCCC(N)=NS(N)(=O)=O)cs1 ?
inactive

Record lookup: outcome of this test for COc1cc(O)c(C(=O)c2ccccc2)cc1O ?
inactive

Record lookup: outcome of this test for CNc1ccccc1C(=O)N1CCc2c([nH]c3ccccc23)C1=O ?
inactive

Record lookup: outcome of this test for CC(C)N(C(=O)CCl)c1ccccc1 ?
inactive

Record lookup: outcome of this test for C1CCc2nnnn2CC1 ?
inactive

Record lookup: outcome of this test for COc1ccc2c(c1)OC[C@@H](Cc1ccc(OC)c(OC)c1)[C@@H]2O ?
inactive

Record lookup: outcome of this test for CCCCCCCCCCCCC[N+](C)(C)Cc1ccccc1 ?
active

Record lookup: outcome of this test for COC1C(O)C(O)C(O)[C@@H](O)C1O (some centres undefined) ?
inactive

Record lookup: outcome of this test for COc1ccc2cc1Oc1ccc(cc1)C[C@H]1c3cc(c(OC)cc3CCN1C)Oc1c(OC)c(OC)cc3c1[C@H](C2)N(C)CC3 ?
inactive

Record lookup: outcome of this test for COc1cc(OC)c2c(c1)O[C@H](c1ccc(OC)c(OC)c1)[C@@H](O)C2 ?
inactive

Record lookup: outcome of this test for COc1ccc2c(c1)OC[C@@H](Cc1ccc(OC)c(OC)c1)[C@H]2O ?
inactive

Record lookup: outcome of this test for Cc1cc(C(C)(C)CC(C)(C)C)ccc1OCCOCC[N+](C)(C)Cc1ccccc1 ?
active

Record lookup: outcome of this test for NCC1CCCCC1CC(=O)O (centres undefined) ?
inactive

Record lookup: outcome of this test for COc1ccc(-c2cc(=O)c3c(O)cc(OC)c(OC)c3o2)c(OC)c1 ?
inactive

Record lookup: outcome of this test for COC(=O)C1[C@H]2C[C@H]3c4[nH]c5ccccc5c4CCN3C[C@@H]2CC[C@@H]1O (some centres undefined) ?
inactive

Record lookup: outcome of this test for COc1ccc2c(c1)C1(C)CCC(=O)CC1CC2 (centres undefined) ?
inactive
